Kindly state pIC50 for each of the entries shown.
System: MOLM-13
Method: Cytotoxicity against human MOLM-13 cells assessed as reduction in cell viability incubated for 72 hrs by Celltiter-glo luminescent assay
Assay type: functional, cell-based
Conditions Used: MOLM-13, 72 h
# log scale: pIC50 equals minus log10 of the concentration in mol/L

May I ask what pIC50 has been recorded for Cc1ccccc1-n1cc(C(C)C)c2cc(-c3ccc(C)c(N)n3)c(F)cc2c1=O ?
10.70

Cool, now Cc1ccccc1-n1cc(C(C)C)c2cc(-c3nc(C(C)(C)O)n(C)n3)c(F)cc2c1=O
10.10

Ok, now [2H]C([2H])([2H])n1cc(-c2cc3c(C(C)C)cn(-c4ccccc4C)c(=O)c3cc2F)nc1C(C)(C)O
10.40

Param item: Cc1ccccc1-n1cc(C(C)C)c2cc(-c3cn(C)c(C(C)(C)O)n3)c(F)cc2c1=O
10.10

Consider next the molecule Cc1ccccc1-n1cc(C(C)C)c2cc(-c3cn(C)c([C@@H](C)O)n3)c(F)cc2c1=O in the same way.
10.00

Cc1ccccc1-n1nc(C(C)C)c2cc(-c3cn(C)c(C(C)(C)O)n3)c(F)cc2c1=O , same question.
10.05
